experiment: recombinant UMI read abundance after kanamycin selection (control-corrected) (log10(CPM+1)); higher = more efficient recombination; extreme values may be limits of the assay; sequences stand for … in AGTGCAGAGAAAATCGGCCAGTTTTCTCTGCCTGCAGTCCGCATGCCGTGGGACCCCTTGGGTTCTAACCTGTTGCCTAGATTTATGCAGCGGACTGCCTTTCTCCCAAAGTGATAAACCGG…AGGTTGGTTTCACT; site = the 11-nt donor
observed-property: recombinant UMI read abundance (log10)

>>> recorded_number("TAGGAGTCATGGACCGGTTTTCCCGGTAATCCGTATTTGCG (site TAGGATTCTCG)")
0.951
>>> recorded_number("CAATTACCATGGACCGGTTTTCCCGGTAATCCGTATTTGCT (site CAATTGCCTAG)")
0
>>> recorded_number("CGCAGTACATGGACCGGTTTTCCCGGTAATCCGTATTTGCT (site CGCAGTACTAG)")
1.44
>>> recorded_number("GCGCTCACATGGACCGGTTTTCCCGGTAATCCGTATTTGCC (site GCGCTCACTGG)")
2.47
>>> recorded_number("CGGGGGTCATGGACCGGTTTTCCCGGTAATCCGTATTTGCC (site CGGGAGTCTGG)")
0.865
>>> recorded_number("ACCCTCACATGGACCGGTTTTCCCGGTAATCCGTATTTGTA (site ACCCTCACTTA)")
0.59
>>> recorded_number("TACCCTTCATGGACCGGTTTTCCCGGTAATCCGTATTTGGT (site TAACCTTCTAC)")
0.00354
>>> recorded_number("TAGACGCCATGGACCGGTTTTCCCGGTAATCCGTATTTGTG (site TAGACGCCTCA)")
0.00987
>>> recorded_number("GATCAGCCATGGACCGGTTTTCCCGGTAATCCGTATTTGCC (site GATCAGCCTGG)")
0.649
>>> recorded_number("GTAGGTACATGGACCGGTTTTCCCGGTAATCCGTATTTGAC (site GTAGGTACTAT)")
2.23
>>> recorded_number("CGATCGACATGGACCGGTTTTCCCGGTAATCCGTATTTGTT (site CGATGGACTAA)")
0.0255
>>> recorded_number("CAATTACCATGGACCGGTTTTCCCGGTAATCCGTATTTGCT (site CAATTACCTAG)")
0
>>> recorded_number("CTGTTTGCATGGACCGGTTTTCCCGGTAATCCGTATTTGAA (site CTGTTTGCTTT)")
1.66
>>> recorded_number("ATTCAAGCATGGACCGGTTTTCCCGGTAATCCGTATTTGAG (site ATACAAGCTCT)")
1.07
>>> recorded_number("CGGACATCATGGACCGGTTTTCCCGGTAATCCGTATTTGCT (site CGGGCATCTAG)")
0
>>> recorded_number("CATCAGTCATGGACCGGTTTTCCCGGTAATCCGTATTTGAT (site CATCAGTCTAT)")
2.04
>>> recorded_number("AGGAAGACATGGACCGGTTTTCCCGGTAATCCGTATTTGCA (site GGGAAGACTTG)")
0.614
>>> recorded_number("GTTAGATCATGGACCGGTTTTCCCGGTAATCCGTATTTGGC (site GTTAGACCTGC)")
0

====

experiment: recombinant barcode read abundance after kanamycin selection (control-corrected) (log10(CPM+1)); higher = more efficient recombination; sequences stand for … in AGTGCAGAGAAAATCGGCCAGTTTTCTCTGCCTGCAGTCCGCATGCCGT…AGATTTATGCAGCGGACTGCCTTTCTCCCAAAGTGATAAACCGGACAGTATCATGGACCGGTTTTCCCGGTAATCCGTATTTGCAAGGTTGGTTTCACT; site = the 11-nt target
observed-property: recombinant barcode read abundance (log10)

>>> recorded_number("ATAGGTCCTTGGGTTCTAACCTGTTGCCT (site ATCGGTCCTAG)")
0.202
>>> recorded_number("GATTATGCTTGGGTTCTAACCTGTTGCCT (site GAGTATGCTAG)")
0.259
>>> recorded_number("GAGGCTTCTTGGGTTCTAACCTGTTGCCT (site GAGGCTTCTAG)")
0.42
>>> recorded_number("GGTCCTACTTGGGTTCTAACCTGTTGCCT (site GGTCCTACTAG)")
0.355
>>> recorded_number("GTGTATACTTGGGTTCTAACCTGTTGCCT (site GTGTATACTAG)")
1.24
>>> recorded_number("CCGGAGCCTTGGGTTCTAACCTGTTGCCT (site CCGCAGCCTAG)")
0.271
>>> recorded_number("TCCAAAGCTTGGGTTCTAACCTGTTGCTA (site TCCCAAGCTTA)")
0.141
>>> recorded_number("TGTATCGCTTGGGTTCTAACCTGTTGCCT (site TGTATCGCTAG)")
0.405
>>> recorded_number("TCGTGCACTTGGGTTCTAACCTGTTGCCT (site TCGTGCGCTAG)")
0.0852
>>> recorded_number("GTGTCTCCTTGGGTTCTAACCTGTTGCAT (site GTGTATCCTAT)")
0.162
>>> recorded_number("TGACTACCTTGGGTTCTAACCTGTTGCCT (site TGACTACCTAG)")
0.838
>>> recorded_number("GTGTACCCTTGGGTTCTAACCTGTTGCAC (site GTGTACCCTGT)")
2.35
>>> recorded_number("GCTGGGCCTTGGGTTCTAACCTGTTGCGA (site GATGGGCCTAC)")
0.0848
>>> recorded_number("TCGCTAGCTTGGGTTCTAACCTGTTGCGG (site CCGCTACCTCC)")
1.83
>>> recorded_number("TAATGTACTTGGGTTCTAACCTGTTGCCT (site TAATGTACTAG)")
0.556
>>> recorded_number("TAGGAGACTTGGGTTCTAACCTGTTGCGT (site TAGGACACTAC)")
0.642
>>> recorded_number("TCAGTATCTTGGGTTCTAACCTGTTGCCT (site TCAGAATCTAG)")
0.145
>>> recorded_number("TATTGCCCTTGGGTTCTAACCTGTTGCCT (site TAATGCCCTAG)")
0.203
>>> recorded_number("CTCATTCCTTGGGTTCTAACCTGTTGCCT (site CTCATTCCTAA)")
0.0318
>>> recorded_number("GTCCCTCCTTGGGTTCTAACCTGTTGCGT (site GTCCCTCCTAA)")
0.0918
>>> recorded_number("GTGAGCACTTGGGTTCTAACCTGTTGCGG (site GTGAGCACTCC)")
1.84

====

test: recombinant UMI read abundance after kanamycin selection (control-corrected) (log10(CPM+1)); higher = more efficient recombination; extreme values may be limits of the assay; sequences stand for … in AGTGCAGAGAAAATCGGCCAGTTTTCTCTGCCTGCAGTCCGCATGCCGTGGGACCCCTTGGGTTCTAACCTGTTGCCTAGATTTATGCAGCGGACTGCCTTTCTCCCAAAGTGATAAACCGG…AGGTTGGTTTCACT; site = the 11-nt donor
observed-property: recombinant UMI read abundance (log10)

>>> recorded_number("AGAAAGCCATGGACCGGTTTTCCCGGTAATCCGTATTTGCT (site AGAAAGACTAG)")
0
>>> recorded_number("GCTTGCCCATGGACCGGTTTTCCCGGTAATCCGTATTTGAC (site GCTTGCCCTCT)")
0.0563
>>> recorded_number("CAAGTCTCATGGACCGGTTTTCCCGGTAATCCGTATTTGAC (site CAAGTCTCTGT)")
3.08
>>> recorded_number("GCTATTGCATGGACCGGTTTTCCCGGTAATCCGTATTTGCC (site GCTACTGCTGG)")
0
>>> recorded_number("CTTTTGGCATGGACCGGTTTTCCCGGTAATCCGTATTTGCT (site CCTTTGGCTAG)")
0
>>> recorded_number("AACGCAACATGGACCGGTTTTCCCGGTAATCCGTATTTGTT (site AACGCAACTAA)")
0.495
>>> recorded_number("ACGCCCTCATGGACCGGTTTTCCCGGTAATCCGTATTTGGG (site ACGCCCTCTCC)")
0.119
>>> recorded_number("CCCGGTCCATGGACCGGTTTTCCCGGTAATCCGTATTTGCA (site CCCGTTCCTTG)")
0
>>> recorded_number("TTTGCTGCATGGACCGGTTTTCCCGGTAATCCGTATTTGCT (site TTTGCCGCTAG)")
0.0567

====

# recombinant barcode read abundance (log10) per record follows
assay: recombinant barcode read abundance after kanamycin selection (control-corrected) (log10(CPM+1)); higher = more efficient recombination; sequences stand for … in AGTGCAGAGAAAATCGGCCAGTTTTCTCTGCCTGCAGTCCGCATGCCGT…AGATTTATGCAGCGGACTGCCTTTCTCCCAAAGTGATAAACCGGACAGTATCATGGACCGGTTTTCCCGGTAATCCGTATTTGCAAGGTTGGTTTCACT; site = the 11-nt target
observed-property: recombinant barcode read abundance (log10)

>>> recorded_number("CAAAGGCCTTGGGTTCTAACCTGTTGCCT (site CAATGGCCTAG)")
0.157
>>> recorded_number("TACGCTCCTTGGGTTCTAACCTGTTGCAT (site TACGCTCCTAA)")
0.053
>>> recorded_number("AGCATCTCTTGGGTTCTAACCTGTTGCCG (site CCTTGTACTAA)")
0.0503
>>> recorded_number("CCTAAGACTTGGGTTCTAACCTGTTGCCC (site CCTAAGACTCG)")
0.0665
>>> recorded_number("CACAGATCTTGGGTTCTAACCTGTTGCTT (site CATAGATCTAA)")
0.0763
